These data points were gathered from ChEMBL document CHEMBL2380243.

- target_of_assay: UniProtKB P13807
- Sequence (P13807 whole entry): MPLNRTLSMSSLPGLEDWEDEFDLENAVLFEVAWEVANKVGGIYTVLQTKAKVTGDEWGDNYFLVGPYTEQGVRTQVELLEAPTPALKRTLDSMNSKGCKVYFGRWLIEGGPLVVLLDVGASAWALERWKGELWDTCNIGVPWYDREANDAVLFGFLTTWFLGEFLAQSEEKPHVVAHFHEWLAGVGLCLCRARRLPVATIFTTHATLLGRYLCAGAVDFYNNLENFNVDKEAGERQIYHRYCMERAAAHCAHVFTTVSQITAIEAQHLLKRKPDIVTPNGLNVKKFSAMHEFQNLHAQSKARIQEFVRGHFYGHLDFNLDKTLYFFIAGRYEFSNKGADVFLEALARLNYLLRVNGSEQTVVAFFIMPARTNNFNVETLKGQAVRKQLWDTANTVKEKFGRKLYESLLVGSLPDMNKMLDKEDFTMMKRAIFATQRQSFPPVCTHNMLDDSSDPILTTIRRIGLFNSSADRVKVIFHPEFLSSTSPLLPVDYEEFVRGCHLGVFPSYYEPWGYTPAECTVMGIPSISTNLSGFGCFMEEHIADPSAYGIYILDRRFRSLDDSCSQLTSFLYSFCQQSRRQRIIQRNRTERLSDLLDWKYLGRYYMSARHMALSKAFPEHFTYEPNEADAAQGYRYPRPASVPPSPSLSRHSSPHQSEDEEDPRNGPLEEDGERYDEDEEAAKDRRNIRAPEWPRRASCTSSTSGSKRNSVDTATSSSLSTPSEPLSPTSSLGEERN
- assay_comment: Activation of human recombinant muscle GYS1 expressed in insect sf9 cells using glycogen and UDP-glucose as substrates by spectrophotometry
Would you mind telling me the reported pEC50 of each entry?
Conceptually, pEC50 converts a concentration in mol/L into minus its log10.

INPUT: Look up pEC50: O=c1c2cccc(COc3ccc(-c4cc(F)c(F)cc4F)cc3)c2[nH]n1CCO
OUTPUT: 6.11

INPUT: GET /values?readout=pEC50&item= Cc1cc(F)c(F)cc1-c1ccc(OCc2cccc3c(=O)n(-c4ccc(F)cc4)[nH]c23)cc1
OUTPUT: 5.83

INPUT: Which pEC50 reading was recorded for the molecule O=c1c2cccc(COc3ccc(-c4cc(F)c(F)cc4Cl)cc3)c2[nH]n1C[C@H](O)CO ?
OUTPUT: 6.52

INPUT: Look up pEC50 for this molecule: COc1cc(F)c(F)cc1-c1ccc(OCc2cccc3c(=O)n(C[C@H](O)CO)[nH]c23)cc1
OUTPUT: 6.60

INPUT: Entry under review: O=C(O)Cn1[nH]c2c(COc3ccc(-c4cc(F)c(F)cc4F)cc3)cccc2c1=O . Reported pEC50?
OUTPUT: 5.92
